- METHOD SUMMARY: Solubility of the compound in water at pH 7 in presence of histamine
- Assay type: physicochemical
EXPERIMENTAL ENDPOINT: solubility (µg/mL)

[[record]]
substance_smiles = "CO[C@H]1/C=C/O[C@@]2(C)Oc3c(C)c(O)c4c(O)c(c(CNc5ccc6c(c5)OCCOCCOCCOCCOCCO6)c(O)c4c3C2=O)NC(=O)/C(C)=C\\C=C\\[C@H](C)[C@H](O)[C@@H](C)[C@@H](O)[C@@H](C)[C@H](OC(C)=O)[C@@H]1C"
endpoint_value = 410


---

- METHOD SUMMARY: Octanol-water partition coefficient, log P of the compound by UV-vis method in presence of histamine
- Format: physicochemical
EXPERIMENTAL ENDPOINT: logP

[[record]]
substance_smiles = "CO[C@H]1/C=C/O[C@@]2(C)Oc3c(C)c(O)c4c(O)c(c(CNc5ccc6c(c5)OCCOCCOCCOCCOCCO6)c(O)c4c3C2=O)NC(=O)/C(C)=C\\C=C\\[C@H](C)[C@H](O)[C@@H](C)[C@@H](O)[C@@H](C)[C@H](OC(C)=O)[C@@H]1C"
endpoint_value = 0.69


---

- METHOD SUMMARY: Octanol-water partition coefficient, log P of the compound by UV-vis method
- Type: physicochemical
1 means recorded logP is 0.5 or above; 0 means it is below 0.5.

[[record]]
compound = "CO[C@H]1/C=C/O[C@@]2(C)Oc3c(C)c(O)c4c(O)c(c(CNC5CCOCC5)c(O)c4c3C2=O)NC(=O)/C(C)=C\\C=C\\[C@H](C)[C@H](O)[C@@H](C)[C@@H](O)[C@@H](C)[C@H](OC(C)=O)[C@@H]1C"
discrete_label = 1

[[record]]
compound = "CO[C@H]1/C=C/O[C@@]2(C)Oc3c(C)c(O)c4c(O)c(c(CNc5ccc6c(c5)OCCOCCOCCOCCO6)c(O)c4c3C2=O)NC(=O)/C(C)=C\\C=C\\[C@H](C)[C@H](O)[C@@H](C)[C@@H](O)[C@@H](C)[C@H](OC(C)=O)[C@@H]1C"
discrete_label = 0

[[record]]
compound = "CO[C@H]1/C=C/O[C@@]2(C)Oc3c(C)c(O)c4c(O)c(c(CNc5ccc6c(c5)OCCOCCOCCOCCOCCO6)c(O)c4c3C2=O)NC(=O)/C(C)=C\\C=C\\[C@H](C)[C@H](O)[C@@H](C)[C@@H](O)[C@@H](C)[C@H](OC(C)=O)[C@@H]1C"
discrete_label = 1

[[record]]
compound = "CO[C@H]1/C=C/O[C@@]2(C)Oc3c(C)c(O)c4c(O)c(c(CNCC5COCCOCCOCCOCCO5)c(O)c4c3C2=O)NC(=O)/C(C)=C\\C=C\\[C@H](C)[C@H](O)[C@@H](C)[C@@H](O)[C@@H](C)[C@H](OC(C)=O)[C@@H]1C (some centres not stated)"
discrete_label = 1

[[record]]
compound = "CO[C@H]1/C=C/O[C@@]2(C)Oc3c(C)c(O)c4c(O)c(c(CNCC5COCCOCCOCCOCCOCCO5)c(O)c4c3C2=O)NC(=O)/C(C)=C\\C=C\\[C@H](C)[C@H](O)[C@@H](C)[C@@H](O)[C@@H](C)[C@H](OC(C)=O)[C@@H]1C (some centres not stated)"
discrete_label = 1

[[record]]
compound = "CO[C@H]1/C=C/O[C@@]2(C)Oc3c(C)c(O)c4c(O)c(c(CN5CCOCCOCCOCCOCCOCC5)c(O)c4c3C2=O)NC(=O)/C(C)=C\\C=C\\[C@H](C)[C@H](O)[C@@H](C)[C@@H](O)[C@@H](C)[C@H](OC(C)=O)[C@@H]1C"
discrete_label = 0

[[record]]
compound = "CO[C@H]1/C=C/O[C@@]2(C)Oc3c(C)c(O)c4c(O)c(c(CNCC5CCOCC5)c(O)c4c3C2=O)NC(=O)/C(C)=C\\C=C\\[C@H](C)[C@H](O)[C@@H](C)[C@@H](O)[C@@H](C)[C@H](OC(C)=O)[C@@H]1C"
discrete_label = 1

